- Subject of test: BCL-2 G-quadruplex (BCL-2 G4)
- Procedure details: MST binding to BCL-2 G-quadruplex
- Particulars: Tris-HCl buffer pH 7.4
pKd: −log10 of the molar value.
Readout label: pKd

                      smiles_representation  readout_label  assay_value
0  O=C(CCN1CCOCC1)Nc1ccc2c(c1)c(=O)c1cc(NC(=O)CCN3CCOCC3)ccc1n2-c1ccc2occc2c1            pKd         4.22

###

- Subject of test: ILPR promoter i-motif
- Procedure details: SPR binding to ILPR promoter i-motif
- Particulars: MES buffer pH 5.5
Readout label: Kd

>>> print(df.to_string())
                      smiles_representation  assay_value
0  O=C(CCN1CCOCC1)Nc1ccc2c(c1)c(=O)c1cc(NC(=O)CCN3CCOCC3)ccc1n2-c1ccc2occc2c1      > 50 µM

###

- Test system: HT-22 cells
- Procedure details: MTT cytotoxicity assay, HT-22
- Assay type: cell-based
- Particulars: Mus musculus, incubation for 48 h
pIC50: −log10 of the molar value.
Readout label: pIC50

>>> df
                      smiles_representation  subject_of_test  assay_value
0  O=C(CCN1CCOCC1)Nc1ccc2c(c1)c(=O)c1cc(NC(=O)CCN3CCOCC3)ccc1n2-c1ccc2occc2c1      HT-22 cells       < 4.00

###

- Subject of test: (G2C4)6 promoter i-motif
- Procedure details: SPR binding to (G2C4)6 promoter i-motif
- Particulars: MES buffer pH 5.5
pKd: −log10 of the molar value.
Readout label: pKd

In [3]: df
Out[3]:
                                   compound           subject_of_test  readout_label  assay_value
0  O=C(CCN1CCOCC1)Nc1ccc2c(c1)c(=O)c1cc(NC(=O)CCN3CCOCC3)ccc1n2-c1ccc2occc2c1 [Compound B14]  (G2C4)6 promoter i-motif            pKd         4.48
